- Tested on: Escherichia coli TOP10
- assayDetails: shrunken log2 fold change of peptide-encoding DNA abundance (4.5 h post-induction vs induction); higher = less antimicrobial activity (less host growth inhibition)
- conditionSummary: time post-induction: 4.5 h; library: site-saturation at positions 5, 18, 19, 20
// shrunken log2 fold change lookup, one value per entry
Answer with a number only.

Please review the entries below; each comes with its answer.
[ask] Tell me the measured shrunken log2 fold change of RRIRARPPRLPRPRPRPRAFPRP , please.
[reply] 0.398

[ask] Next sequence: RRIRHRPPRLPRPRPRPTTRPRP
[reply] 0.383

Continuing:
[ask] Tell me the measured shrunken log2 fold change of RRIRARPPRLPRPRPRPMLYPRP , please.
[reply] 0.249

[ask] Next sequence: RRIRERPPRLPRPRPRPYYRPRP
[reply] -0.165

[ask] Next sequence: RRIRDRPPRLPRPRPRPTTQPRP
[reply] 0.831

[ask] Next sequence: RRIRHRPPRLPRPRPRPAEMPRP
[reply] -0.01

[ask] Next sequence: RRIRWRPPRLPRPRPRPMCGPRP
[reply] 0.205

[ask] Next sequence: RRIRYRPPRLPRPRPRPPMSPRP
[reply] -0.612

[ask] Next sequence: RRIRLRPPRLPRPRPRPKIIPRP
[reply] -0.69

[ask] Next sequence: RRIRIRPPRLPRPRPRPNTGPRP
[reply] -0.663

[ask] Next sequence: RRIRFRPPRLPRPRPRPNIDPRP
[reply] -0.463

[ask] Next sequence: RRIRWRPPRLPRPRPRPTDRPRP
[reply] -0.0423

[ask] Next sequence: RRIRWRPPRLPRPRPRPYLDPRP
[reply] -0.33

[ask] Next sequence: RRIRDRPPRLPRPRPRPKQWPRP
[reply] 0.109

[ask] Next sequence: RRIRLRPPRLPRPRPRPCMYPRP
[reply] -0.674

---

- Tested on: Escherichia coli TOP10
- assayDetails: shrunken log2 fold change of peptide-encoding DNA abundance (4.5 h post-induction vs induction); higher = less antimicrobial activity (less host growth inhibition)
- conditionSummary: time post-induction: 4.5 h; library: site-saturation at positions 5, 18, 19, 20
parameterMeasured: shrunken log2 fold change
Answer with a number only.

Please review the entries below; each comes with its answer.
[ask] Tell me the measured shrunken log2 fold change of RRIRKRPPRLPRPRPRPGRKPRP , please.
[reply] 0.0872

[ask] Next sequence: RRIRVRPPRLPRPRPRPFDFPRP
[reply] -0.266

Continuing:
[ask] Tell me the measured shrunken log2 fold change of RRIRQRPPRLPRPRPRPCPTPRP , please.
[reply] -0.13

[ask] Next sequence: RRIRRRPPRLPRPRPRPRDCPRP
[reply] 0.177

---

- Tested on: Escherichia coli TOP10
- assayDetails: shrunken log2 fold change of peptide-encoding DNA abundance (4.5 h post-induction vs induction); higher = less antimicrobial activity (less host growth inhibition)
- conditionSummary: time post-induction: 4.5 h; library: site-saturation at positions 5, 18, 19, 20
parameterMeasured: shrunken log2 fold change

[ask] Tell me the measured shrunken log2 fold change of RRIRQRPPRLPRPRPRPANFPRP , please.
[reply] 0.0982

[ask] Next sequence: RRIRDRPPRLPRPRPRPNTQPRP
[reply] 0.0704

Continuing:
[ask] Tell me the measured shrunken log2 fold change of RRIRHRPPRLPRPRPRPVVSPRP , please.
[reply] -0.137

[ask] Next sequence: RRIRLRPPRLPRPRPRPGGWPRP
[reply] 0.71

[ask] Next sequence: RRIRTRPPRLPRPRPRPWKCPRP
[reply] -0.0161

[ask] Next sequence: RRIRPRPPRLPRPRPRPKECPRP
[reply] 0.241

[ask] Next sequence: RRIRHRPPRLPRPRPRPSWHPRP
[reply] -0.759

[ask] Next sequence: RRIRDRPPRLPRPRPRPPGSPRP
[reply] 0.511

[ask] Next sequence: RRIRMRPPRLPRPRPRPMDGPRP
[reply] 0.418

[ask] Next sequence: RRIRLRPPRLPRPRPRPKKEPRP
[reply] -0.0307

---

- System: Escherichia coli TOP10
- assayDetails: shrunken log2 fold change of peptide-encoding DNA abundance (4.5 h post-induction vs induction); higher = less antimicrobial activity (less host growth inhibition)
- conditionSummary: time post-induction: 4.5 h; library: site-saturation at positions 5, 18, 19, 20
Category key, based on recorded shrunken log2 fold change: Low = under -0.07, Mid = from -0.07 up to 0.1, High = 0.1 and over

Use these answered entries as a reference point.
[ask] Hello team, could you let me know which band the following sequence falls into: RRIRARPPRLPRPRPRPCKGPRP
[reply] Low

[ask] Next sequence: RRIRSRPPRLPRPRPRPYTNPRP
[reply] Low

[ask] Next sequence: RRIRIRPPRLPRPRPRPDAAPRP
[reply] High

[ask] Next sequence: RRIRSRPPRLPRPRPRPSAAPRP
[reply] High

Continuing:
[ask] Hello team, could you let me know which band the following sequence falls into: RRIRVRPPRLPRPRPRPGLKPRP
[reply] Mid

[ask] Next sequence: RRIRLRPPRLPRPRPRPSCLPRP
[reply] Low

---

- Tested on: Escherichia coli TOP10
- assayDetails: shrunken log2 fold change of peptide-encoding DNA abundance (4.5 h post-induction vs induction); higher = less antimicrobial activity (less host growth inhibition)
- conditionSummary: time post-induction: 4.5 h; library: site-saturation at positions 5, 18, 19, 20
Category key, based on recorded shrunken log2 fold change: class A: < -0.2; class B: ≥ -0.2 and < 0.02; class C: ≥ 0.02

[ask] Hello team, could you let me know which band the following sequence falls into: RRIRMRPPRLPRPRPRPYNSPRP
[reply] class A

[ask] Next sequence: RRIRYRPPRLPRPRPRPKISPRP
[reply] class B

---

- Test system: Escherichia coli TOP10
- assayDetails: shrunken log2 fold change of peptide-encoding DNA abundance (4.5 h post-induction vs induction); higher = less antimicrobial activity (less host growth inhibition)
- conditionSummary: time post-induction: 4.5 h; library: site-saturation at positions 5, 18, 19, 20
// shrunken log2 fold change lookup, one value per entry
Answer with a number only.

[ask] Form field: shrunken log2 fold change recorded for RRIRNRPPRLPRPRPRPNMTPRP with Escherichia coli TOP10 (enter value)
[reply] -0.345

[ask] Next sequence: RRIRGRPPRLPRPRPRPCYDPRP
[reply] 0.156

[ask] Next sequence: RRIRCRPPRLPRPRPRPPHDPRP
[reply] 1.83

[ask] Next sequence: RRIRGRPPRLPRPRPRPHLWPRP
[reply] 0.942

[ask] Next sequence: RRIRRRPPRLPRPRPRPLTQPRP
[reply] 0.342

[ask] Next sequence: RRIRLRPPRLPRPRPRPWRGPRP
[reply] 0.277

[ask] Next sequence: RRIRKRPPRLPRPRPRPIIQPRP
[reply] 0.0837

[ask] Next sequence: RRIRRRPPRLPRPRPRPSMDPRP
[reply] 0.0821

[ask] Next sequence: RRIRQRPPRLPRPRPRPKRNPRP
[reply] 0.29

[ask] Next sequence: RRIRFRPPRLPRPRPRPFMTPRP
[reply] -0.333

[ask] Next sequence: RRIRNRPPRLPRPRPRPVYPPRP
[reply] -0.341

[ask] Next sequence: RRIRDRPPRLPRPRPRPCGIPRP
[reply] 0.0258

[ask] Next sequence: RRIRMRPPRLPRPRPRPLPKPRP
[reply] 1.11

[ask] Next sequence: RRIRIRPPRLPRPRPRPKQMPRP
[reply] -0.166

[ask] Next sequence: RRIRVRPPRLPRPRPRPLDCPRP
[reply] -0.0035

[ask] Next sequence: RRIRWRPPRLPRPRPRPSDWPRP
[reply] 0.12

[ask] Next sequence: RRIRHRPPRLPRPRPRPSHHPRP
[reply] -0.267

[ask] Next sequence: RRIRDRPPRLPRPRPRPIPHPRP
[reply] -0.051

[ask] Next sequence: RRIRWRPPRLPRPRPRPVDLPRP
[reply] -0.107

---

// shrunken log2 fold change lookup, one value per entry
- System: Escherichia coli TOP10;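 note: peptides expressed intracellularly from a pBAD plasmid library in pooled LB shake-flask culture, induced with 0.3% L-arabinose, DNA abundance read by NGS, three biological replicates, DESeq2 with apeglm shrinkage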
- assayDetails: shrunken log2 fold change of peptide-encoding DNA abundance (4.5 h post-induction vs induction); higher = less antimicrobial activity (less host growth inhibition)
- conditionSummary: time post-induction: 4.5 h; library: site-saturation at positions 5, 18, 19, 20
Answer with a number only.

Please review the entries below; each comes with its answer.
[ask] Tell me the measured shrunken log2 fold change of RRIRFRPPRLPRPRPRPEVCPRP , please.
[reply] 0.00109

[ask] Next sequence: RRIRYRPPRLPRPRPRPQPCPRP
[reply] 0.025

[ask] Next sequence: RRIRYRPPRLPRPRPRPSHAPRP
[reply] -0.242

[ask] Next sequence: RRIRIRPPRLPRPRPRPRCWPRP
[reply] 0.138

[ask] Next sequence: RRIRMRPPRLPRPRPRPLKRPRP
[reply] 0.0303

Continuing:
[ask] Tell me the measured shrunken log2 fold change of RRIRVRPPRLPRPRPRPHYNPRP , please.
[reply] -0.366

The origin of these recorded values is the supplement of paper PMC9112550.
